target: Human Factor D (Homo sapiens (Human)); test: Human Factor D Assay; assay type: biochemical; settings: Human Factor D assay of Example 8; Table 2; read-out: IC50
pIC50: −log10 of the molar value.
The following molecules are listed with their measured pIC50 values.

{"columns": ["MOLECULE", "pIC50"],
 "data": [
  ["CC(=O)c1nn(CC(=O)N2CCC[C@H]2C(=O)Nc2cccc(Br)n2)c2ccc(-c3cnc(C)nc3)cc12 [Compound 230]", "> 6.00"],
  ["CC(=O)c1cn(CC(=O)N2C[C@H](F)C[C@H]2C(=O)Nc2cccc(Br)n2)c2cc(O)c(-c3cnc(C)nc3)cc12 [Compound 328]", "> 6.00"],
  ["NC(=O)c1nn(CC(=O)N2C[C@H](F)C[C@H]2C(=O)Nc2cccnc2O)c2ccc(-c3ccnnc3)cc12 [Compound 196]", "< 5.00"]
]}

* * *

The following molecules are listed with their measured IC50 values.
molecular target: Human Factor D (Homo sapiens (Human), UniProt P00746); experiment: Human Factor D Assay; format: biochemical; conditions: Human Factor D 80 nM, substrate Z-L-Lys-SBzl; read-out: IC50
Sequence (P00746 26-253): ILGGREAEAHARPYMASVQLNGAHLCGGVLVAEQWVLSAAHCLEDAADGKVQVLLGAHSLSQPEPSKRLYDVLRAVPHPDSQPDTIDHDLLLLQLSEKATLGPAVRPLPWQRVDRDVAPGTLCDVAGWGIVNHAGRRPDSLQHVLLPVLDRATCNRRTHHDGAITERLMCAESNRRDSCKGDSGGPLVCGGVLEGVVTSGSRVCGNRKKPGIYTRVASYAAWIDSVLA
ASSAY METRIC: IC50

{"columns": ["MOLECULE", "REPORTED RESULT"],
 "data": [
  ["NC(=O)c1nn(CC(=O)N2[C@@H]3C[C@@H]3C[C@H]2C(=O)Nc2cccc(Br)n2)c2ccc(-c3cncnc3)cc12", "< 1 µM"],
  ["CC(=O)Nc1ncc(-c2ccc3c(c2)c(C(C)=O)cn3CC(=O)N2C[C@H](F)C[C@H]2C(=O)Nc2cccc(Br)n2)cn1", "< 1 µM"],
  ["CC(=O)c1cn(CC(=O)N2C[C@H](F)C[C@H]2C(=O)Nc2cccc(Br)n2)c2ccc(-c3cnc(C)nc3)cc12", "< 1 µM"],
  ["Cn1ccc(N2CCC(NC(=O)[C@@H]3C[C@@H](F)CN3C(=O)Cn3nc(C(N)=O)c4cc(-c5ccnnc5)ccc43)C2=O)n1 (stereo partly shown)", "> 10 µM"],
  ["NC(=O)c1nn(CC(=O)N2C[C@H](F)C[C@H]2C(=O)Nc2c[nH]nc2-c2ccc(Cl)cc2Cl)c2ccc(-c3ccnnc3)cc12", "> 10 µM"],
  ["NC(=O)c1nn(CC(=O)N2C[C@H](F)C[C@H]2C(=O)NCc2cccc(Cl)c2)c2ccc(-c3ccnnc3)cc12", "< 1 µM"],
  ["CC(=O)c1cn(CC(=O)N2C[C@H](F)C[C@H]2C(=O)Nc2cc(C)nc3nc(C(F)(F)F)nn23)c2ccc(-c3ccnnc3)cc12", "> 10 µM"],
  ["NC(=O)c1nn(CC(=O)N2C[C@H](F)C[C@H]2C(=O)N[C@@H]2CCC[C@@H]2OCc2ccccc2)c2ccc(-c3ccnnc3)cc12", "> 10 µM"],
  ["CC(=O)c1cn(CC(=O)N2C[C@H](F)C[C@H]2C(=O)NCc2cccc(Cl)c2F)c2ccc(-c3cnc(C)nc3)cc12", "< 1 µM"],
  ["CC(=O)c1cn(CC(=O)N2[C@@H]3C[C@@H]3C[C@H]2C(=O)Nc2cccc(-c3ccccc3Cl)c2F)c2ccc(-c3cncnc3)cc12", "< 1 µM"],
  ["CNC(=O)[C@@H]1C[C@@H](F)CN1C(=O)Cn1nc(C(N)=O)c2cc(-c3ccnnc3)ccc21", "> 10 µM"],
  ["CC(=O)c1cn(CC(=O)N2C[C@H](F)C[C@H]2C(=O)Nc2cccc3c2CN(c2ccccn2)C3)c2ccc(-c3ccnnc3)cc12", "> 10 µM"],
  ["CC(=O)c1cn(CC(=O)N2C[C@H](F)C[C@H]2C(=O)Nc2ccccc2-c2nncn2C)c2ccc(-c3ccnnc3)cc12", "> 10 µM"]
]}
